# Tested on: PPARg:RXRa IVT, anti-PPARg (NR concentration 270 nM, RXRa partner concentration 90 nM)
# Protocol: PBM binding z-score (relative to random genomic background probes); higher = stronger binding; sequences stand for … in GC…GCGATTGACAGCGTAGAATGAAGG
Endpoint: PBM binding z-score

Sequence String | Reported Measurement
CATACAGGGTCAGCTAGGCCAGAGTCGGGACGGC | 2.55
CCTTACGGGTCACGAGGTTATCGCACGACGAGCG | 5.24
CTCGAAAGGTCGTACTCAGGTGAGTATACCAAAC | 1.95
GCAGACAGGTGAAACGCAGGTTACTCAGGGTGGC | 0.617
GCTGCTAGGTCACCTGATGGTCAGCTAAAGCTCG | 4.09
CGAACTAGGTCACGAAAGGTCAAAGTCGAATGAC | 8.7
CCGACTGGGGCATACGGTTACCATAAGCCAGCCC | 2.15
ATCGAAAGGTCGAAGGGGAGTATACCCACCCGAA | 1.38
ATCTCTAGGTAAAAGTTCAGTGATTCCCGAGGAT | 3.78
GCGACTGGGGCACCAGCAGGTTACCATAACTTAA | 4.22
AGAACGAGGGCACGCTGAGTTGATAGGAGAGTAG | 3.7
TCAGACAGGTGACGGTAACTCAGGTACGCAGTCG | 1.37
CGTCCAAGGTCAATGCTAGGTCAGTGACAGCATT | 4.07
AGAATGAGGTTATACGTCGATCAGGGAAGAAAGT | 2.09
CCGACTAGGGCAGAAAGGTTACCATACCATCCGG | 2.6
ATATGTAGGTTAAGGGTCATTTAGGTTGGTTCGC | 7.94
CCTATTAGTTGACCATAAGGGCAACCGGAGCTCG | 0.489
CCTAATTGGTCAGGAGGTCACACACCGGATATGA | 3.67
TCTTGTAGATCAAAGGTTAACAAAGCCGAAGCCT | 4.38
GCAGTCAGGTGAAACGCAGGTAACTCAGGGTGGC | 0.996
CCGACTGGGGCAAGGTTACCATGACGCACAGCCA | 3.49
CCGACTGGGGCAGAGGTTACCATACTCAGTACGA | 4.26
GGAACGTGGGCAAGTTGATAGCAGAGTTTGATGG | -0.544
CCTTACTGGTCACGAGGTTATAGCACGACGAGCG | 2.01
CGTCCAAGGTCTATGCTAGGTCAGTGAAAGCATT | 0.505
AATACAGTGTCACTAGGCCAGAGTAGGTACGAAT | 3.04
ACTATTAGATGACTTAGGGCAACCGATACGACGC | 0.319
TATGCAGGGTCAAAGGCCAGAGTACGAATGTCGA | 3.92
GCGACTGGGGCATGAGCAGGTTACCATAACTTAA | 3.4
TCGAGTAGGTTAGTCGGGACATTCAGCCAACATA | 1.48
ACTAGCAGGCCATGGGTCACTCAAGATTAGTCCG | 2.7
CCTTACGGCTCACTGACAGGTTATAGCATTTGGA | -0.612
TCATAAAGGTAAAGGTGAAAGTCGAACGATATGA | 3.1
CCTACTGGGCCATCAGGTAATTGATATCAACGTT | 4.05
ATCTCTAGGTAAAAGTCCAGTGAATCCCGAGGAT | 1.54
ACTATGAGTTGACTTAGGGCAACCGATACGACGC | 0.378
AGAATGAGGTTATTAAGTTCAGGGAATTGCGGTC | 2.49
TCGAGTAGGTTACCAATGGGGCATTAAGCTTTCT | 2.74
CCTCGGTGGACAGAAGGTCAGAGCTGTCCGCTTT | 0.138
CCTACTGGGCCATTCAGAGGTCATTGGTCATATG | 4.26
CTCGAAAGGTCGTGCTCTGGTGAGTATACCAAAC | 1.7
CGTCCAAGGTCAGCAGGTCAGGGAAAGCGACGTG | 3.53
ATACCAAGGTGATCGTGATGTCGTTGATACTAAC | 0.996
CAGACTAGGTCACCGGAAGGTCAAAGTCCGCATG | 7.61
CAAACTATGTCAAGGTCAAAGTCGGTTTGTGCCA | 4.71
CTCGAAAGGTCGATTGAGGTGAGTATACGGATAA | 1.76
TAGCCGAGGTCAGATCGGGCCAGTATACGCTATA | 2.23
CCTACTGGGCCAAACAGGTCATTGATGCCGATAA | 3.92
CGTCCAAGGTCATAGGAGGTCAGAGAAGACAGAT | 4.81
ATCGAAAGGTCGACGAGGTCAGTATACACCGTTT | 2.59
TCTATTGGTTGAAGGGCAACCGACGAGTCCGTTT | 0.82
